Assay: qHTS assay to identify small molecule agonists of the NFkB signaling pathway - cell viability counter screen (AID 1159515); note: % is set by controls: 0 for no effect and ±100 for the full control effect; nearly all actives have a fitted effect of over 55% in size
Conditions: NFkB-bla ME-180 viability, CellTiter-Glo luminescence, 5 h; series mostly up to 61 µM
Results filed as inconclusive are left out. Calls of active or inactive are those of the source. Calls come from the whole dose curve.
propertyMeasured: outcome

CCCCCCCC(=O)Oc1c(Br)cc(C#N)cc1Br :: inactive
Cc1cccc(C)c1NC(=O)c1cc(S(N)(=O)=O)c(Cl)cc1O :: inactive
CCC(CO)(CO)[N+](=O)[O-] :: inactive
CC(=O)OCCC(C)CC(C)(C)C (configuration not stated) :: inactive
O=C(Nc1ccc(C(=O)O)c(O)c1)c1ccccc1 :: inactive

Data request: Please supply the value of reported outcome for the item CC12CC3CC(C)(C1)CC(N)(C3)C2
Data returned: inactive

Data request: Please supply the value of reported outcome for the item CCCCCCCC(=O)OCCCCCC
Data returned: inactive

Data request: Please supply the value of reported outcome for the item CCN(CC)C(=O)/C(C#N)=C/c1cc(O)c(O)c([N+](=O)[O-])c1
Data returned: inactive

Data request: Please supply the value of reported outcome for the item CC(C)(C)C(O)/C=C/c1ccc2c(c1)OCO2 (configuration not stated)
Data returned: inactive

Data request: Please supply the value of reported outcome for the item CN(C)CC/C=C1\c2ccccc2Sc2ccc(Cl)cc21
Data returned: inactive

Data request: Please supply the value of reported outcome for the item COC(=O)C1=C(C)NC(C)=C(C(=O)OC(C)(C)CN(C)CCC(c2ccccc2)c2ccccc2)C1c1cccc([N+](=O)[O-])c1 (configuration not stated)
Data returned: inactive

Data request: Please supply the value of reported outcome for the item CCCCCCCC/C=C/C(=O)O
Data returned: inactive

----------
Assay: qHTS assay to test for compound auto fluorescence at 590 nm (red) in HEK293 cell free culture (AID 720683); note: % is set by controls: 0 for no effect and ±100 for the full control effect
Conditions: cell-free medium autofluorescence, Ex540/Em590 red; series mostly up to 91.3 µM
Calls of active or inactive are those of the source. Calls come from the whole dose curve; as a rule, active = well fitted curve in the direction sought with a large enough effect in the repeat runs; inconclusive = weak or mixed curves; inactive = flat fitted curve, though single readings scatter.
propertyMeasured: fluorescence, % of fluorescent control

Worked examples follow.
COc1cc(C(C)=O)ccc1OCCCN1CCC(c2noc3cc(F)ccc23)CC1 :: inactive
Cc1ccc(N(CCO)CCO)cc1 :: inactive
CC(C)Cc1ccc(CC(=O)O)cc1 :: inactive
NC(=O)CCCCC(N)=O :: inactive
CCN(Cc1cccc(S(=O)(=O)O)c1)c1ccc(C(=C2C=CC(=[N+](CC)Cc3cccc(S(=O)(=O)O)c3)C=C2)c2ccc(O)cc2S(=O)(=O)[O-])cc1 :: inactive
CCC(Cl)CC(Cl)C(Cl)C(Cl)C(Cl)C(C)Cl (stereo not given) :: -0.0269% [at 13.4 µM] (inactive)

Data request: Please supply the value of reported fluorescence, % of fluorescent control for the item COC(OC)OC
Data returned: inactive

Data request: Please supply the value of reported fluorescence, % of fluorescent control for the item CCC(=O)OCc1ccc(OC)cc1
Data returned: inactive

Data request: Please supply the value of reported fluorescence, % of fluorescent control for the item O=P(O)(O)Oc1ccccc1
Data returned: inactive

Data request: Please supply the value of reported fluorescence, % of fluorescent control for the item CO[C@@H]1[C@@H](OC)[C@H](C)[C@@](O)(CC(=O)O)O[C@H]1[C@H](C)[C@H]1O[C@@]2(CC[C@@](C)([C@H]3CC[C@@](C)([C@@H]4O[C@@H]([C@H]5O[C@](C)(O)[C@H](C)C[C@@H]5C)C[C@@H]4OC4C[C@H](OC)[C@@H](OC)[C@H](C)O4)O3)O2)C[C@H](O)[C@H]1C (stereo not given in full)
Data returned: inactive
